Test system: HBV
Assay: Anti-HBV activity, HepG2.117 inducible HBV producing cell line (Tet-off), intracellular HBV DNA by realtime PCR
Assay type: cell-based
Details: Hepatitis B virus, 72 h; HepG2.117 cells, 3 days of treatment, intracellular HBV DNA; read-out: HepG2 117 EC50
observation type: pEC50
Just so you know, pEC50 here is -log10 of the concentration in molar units; reply with that number alone.

{"columns": ["compound", "experimental target", "pEC50"],
 "data": [
  ["Cn1cc(C(=O)C(=O)NC(C)(C)C)cc1C(=O)Nc1ccc(F)c(C#N)c1", "HBV", 7.37],
  ["COCC(C)(CCO)NC(=O)C(=O)c1cc(C(=O)Nc2ccc(F)c(C#N)c2)n(C)c1C (stereo not shown)", "HBV", 7.60],
  ["Cc1c(C(=O)C(=O)NC(CCO)C2CC2)cc(C(=O)Nc2ccc(F)c(C#N)c2)n1C (stereo not shown)", "HBV", 7.82]
]}

Which pEC50 value belongs to C[C@@H](NC(=O)C(=O)c1cc(C(=O)Nc2ccc(F)c(C#N)c2)n(C)c1C1CC1)C(F)(F)F ?
6.92

Entry to check: Cc1c(C(=O)C(=O)NC2(C)CC(F)(F)C2)cc(C(=O)Nc2ccc(F)c(C#N)c2)n1C
8.30

How about Cc1c(C(=O)C(=O)NC2(C)COC2)cc(C(=O)Nc2ccc(F)c(C#N)c2)n1C ?
7.96
